- Target Desc: human DLL3 (Homo sapiens)
- Assay Procedure: Affinity determination by Surface Plasmon Resonance (SPR)
- Format: binding
- Details: 25° C., biotinylated human DLL3 immobilized on streptavidin sensor chip, 1:1 binding model; read-out: SPR KD
pKd: −log10 of the molar value. Bridge positions count the residues as written; N and C are the ends. Square brackets hold non-standard residues; d marks the D form. Peptide text beside a SMILES is read from it. * marks the point of attachment. DOTA = O=C(O)CN1CCN(CC(=O)O)CCN(CC(=O)*)CCN(CC(=O)O)CC1; 2Nal = N[C@@H](Cc1ccc2ccccc2c1)C(=O)O
Measurement Type: pKd

[[record]]
molecule = "CC[C@H](C)[C@H](NC(=O)[C@@H](NC(=O)[C@H](Cc1c[nH]c2ccccc12)NC(C)=O)[C@@H](C)O)C(=O)N[C@H]1CSSC[C@@H](C(=O)N[C@@H](Cc2c[nH]c3ccccc23)C(=O)N2CCC[C@H]2C(=O)N[C@H](CCCCNC(=O)CN2CCN(CC(=O)O)CCN(CC(=O)O)CCN(CC(=O)O)CC2)C(N)=O)NC(=O)[C@H](CC(=O)O)NC(=O)[C@H](Cc2cnc[nH]2)NC(=O)[C@H](Cc2ccc3ccccc3c2)NC(=O)[C@H](CC(N)=O)NC(=O)[C@H](CO)NC1=O [compound 208] (Ac-WTICSN[2Nal]HDCWP[dK](DOTA)-NH2; disulfide 4-10)"
target_desc = "human DLL3 (Homo sapiens)"
measurement_type = "pKd"
measured_value = "> 9.00"

